Examples of compounds with documented pIC50 follow.
# assay target: Hepatocyte growth factor receptor (Homo sapiens, UniProt P08581)
# Sequence (P08581 whole entry): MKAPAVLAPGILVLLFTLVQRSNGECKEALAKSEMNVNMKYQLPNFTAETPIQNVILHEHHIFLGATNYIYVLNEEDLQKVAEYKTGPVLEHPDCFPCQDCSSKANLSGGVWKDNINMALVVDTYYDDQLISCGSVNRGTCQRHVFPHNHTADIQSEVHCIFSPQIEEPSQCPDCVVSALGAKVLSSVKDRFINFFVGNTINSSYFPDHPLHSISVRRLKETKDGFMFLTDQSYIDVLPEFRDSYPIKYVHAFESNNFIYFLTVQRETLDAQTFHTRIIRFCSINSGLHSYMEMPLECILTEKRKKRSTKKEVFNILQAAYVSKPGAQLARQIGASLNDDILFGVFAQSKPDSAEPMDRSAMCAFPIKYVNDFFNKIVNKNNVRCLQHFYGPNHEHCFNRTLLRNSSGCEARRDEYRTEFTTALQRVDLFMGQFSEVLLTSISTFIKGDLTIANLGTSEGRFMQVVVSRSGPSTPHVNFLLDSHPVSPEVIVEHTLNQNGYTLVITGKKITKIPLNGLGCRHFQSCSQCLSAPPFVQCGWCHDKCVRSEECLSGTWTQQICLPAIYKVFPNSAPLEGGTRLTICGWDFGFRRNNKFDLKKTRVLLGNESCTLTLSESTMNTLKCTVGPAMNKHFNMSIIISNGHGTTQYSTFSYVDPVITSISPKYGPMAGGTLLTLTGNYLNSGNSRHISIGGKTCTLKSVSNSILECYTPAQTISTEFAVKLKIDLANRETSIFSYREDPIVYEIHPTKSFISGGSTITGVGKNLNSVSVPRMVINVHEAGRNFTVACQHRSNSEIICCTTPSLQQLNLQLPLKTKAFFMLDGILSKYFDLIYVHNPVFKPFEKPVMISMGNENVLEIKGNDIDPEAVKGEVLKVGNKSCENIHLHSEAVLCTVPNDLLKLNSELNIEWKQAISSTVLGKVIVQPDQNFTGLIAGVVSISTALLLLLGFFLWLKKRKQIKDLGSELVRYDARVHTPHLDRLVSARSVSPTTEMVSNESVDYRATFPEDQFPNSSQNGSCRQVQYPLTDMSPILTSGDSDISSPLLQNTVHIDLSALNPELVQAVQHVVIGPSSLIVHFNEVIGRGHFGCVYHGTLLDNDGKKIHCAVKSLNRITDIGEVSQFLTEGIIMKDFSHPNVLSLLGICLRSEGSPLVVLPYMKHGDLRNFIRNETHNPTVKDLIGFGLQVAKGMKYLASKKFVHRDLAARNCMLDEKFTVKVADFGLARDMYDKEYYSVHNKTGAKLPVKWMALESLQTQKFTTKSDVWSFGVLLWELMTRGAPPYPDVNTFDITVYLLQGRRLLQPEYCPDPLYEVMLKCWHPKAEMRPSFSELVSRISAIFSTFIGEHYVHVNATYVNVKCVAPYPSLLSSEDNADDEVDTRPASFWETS
# assay notes: Inhibition of purified recombinant c-Met after 60 mins by ELISA
In plain terms, pIC50 is the concentration in mol/L turned into minus its base-10 logarithm.

Some compounds with known pIC50 results, for comparison:
[Q] Give its pIC50 value. Item: CN1CCN(c2cnc3cccc(NS(=O)(=O)c4cccc([N+](=O)[O-])c4)c3c2)CC1
[A] 5.46

[Q] Please answer likewise for O=[N+]([O-])c1cccc(CNc2cc(C(F)(F)F)cc3ncc(N4CCN(S(=O)(=O)C5CC5)CC4)cc23)c1
[A] 9.08

[Q] Please answer likewise for CN1CCN(c2cnc3cc(C(F)(F)F)cc(NCc4cccnc4)c3c2)CC1
[A] 6.80

***
[Q] Give its pIC50 value. Item: CN1CCN(c2cnc3cccc(-c4ccc5ccccc5c4)c3c2)CC1
[A] 5.24

[Q] Please answer likewise for CCN1CCN(c2cnc3cc(C(F)(F)F)cc(NCc4cccc(C#N)c4)c3c2)CC1
[A] 8.25

[Q] Please answer likewise for CN1CCN(c2cnc3cc(C(F)(F)F)cc(NS(=O)(=O)c4cccc([N+](=O)[O-])c4)c3c2)CC1
[A] 7.00

[Q] Please answer likewise for CC(=O)N1CCN(c2cnc3cccc(NC(=O)Nc4cccc([N+](=O)[O-])c4)c3c2)CC1
[A] 4.65

[Q] Please answer likewise for O=[N+]([O-])c1cccc(CNc2cc(C(F)(F)F)cc3ncc(N4CCCCC4)cc23)c1
[A] 8.47

[Q] Please answer likewise for CN1CCN(c2cnc3cc(C(F)(F)F)cc(OCc4cccc([N+](=O)[O-])c4)c3c2)CC1
[A] 8.57
